Tested on: A549/ATCC NSCLC
Test: NCI-60 one-dose screen, 48 h
Conditions: 10 µM unless noted
Compounds without any hit were thinned out: in the full panel of roughly 83,000, 20% have a hit. Calls of active or inactive are those of the source. Rule for the calls: active = growth percent below 10; inactive = the rest.
Please state which outcome applies, choosing from active, inactive

Use the examples below as a reference point.
O=C1CSC(=S)N1Cc1cccnc1 : inactive
c1ccc(C2NCCNC2c2ccccc2)cc1 (stereo unspecified) : inactive
Cc1cccc2c(N)c3ccccc3nc12 : active
CCCCCCCCCCCC[S+](C)CC(=O)[O-] (stereo unspecified) : inactive
Cc1cc(C)c(C#N)c(Sc2nc(C)c([N+](=O)[O-])c(C)c2C#N)n1 : inactive

Continue with the molecule presented below.
Query: So what was the verdict on O=C(Cc1nc2cc(Cl)c(Cl)cc2nc1CC(=O)c1ccccc1)c1ccccc1 in this test?
Reply: inactive

----------
System: KM12 colon
Assay: NCI-60 one-dose screen, 48 h (100 = growth as untreated, 0 = no growth, -100 = all killed)
Details: 10 µM unless noted
Procedure: Growth inhibition of the KM12 human tumor cell line is measured as a screen for anti-cancer activity. Cells are grown in 96 well plates and exposed to the test compound for 48 hours. Compounds are tested at a single concentration, which is 10^-5 M for most compounds. The reported endpoint is percent growth (GI% or GIPRCNT), where numbers from 0 - 100% represent growth inhibition, and numbers from -100% - 0 represent cell death. For example, a value of 40 represents 60% growth inhibition. […]
Compounds without any hit were thinned out: in the full panel of roughly 83,000, 20% have a hit.
ENDPOINT: growth (%)
A number alone suffices; assume %.

NNc1cccc([N+](=O)[O-])c1 : 52.5
COc1ccc2c(c1)c(CC(=O)O)c(C)n2C(=O)c1ccc(Cl)cc1 : 99.2
O=C1c2ccccc2Cc2cccc(Cl)c21 : 106

Now consider the entry below.
// returns growth for O=[N+]([O-])c1ccc(N2CCN(Cc3ccccc3)CC2)c2c1no[n+]2[O-] with KM12 colon; value = -52.2

----------
Test system: SK-MEL-5 melanoma
Test: NCI-60 one-dose screen, 48 h
Settings: 10 µM unless noted
This is part of a sample that, as a whole, favours compounds with a hit. Of some 83,000 tested, about 20% had one in any assay. Activity calls are given as the source filed them. How the source made its calls: active means growth percent below 10; inactive means the rest.
Please state which outcome applies, choosing from yes (1) for active, no (0) for inactive

Use the examples below as a reference point.
CN(C)c1ccc(/C=C/c2ccnc3ccccc23)cc1 : no (0)
CCCCCCCCCCCCCCCCCC[S+](C)CC (stereo unspecified) : yes (1)
COc1ccc2c(c1OC)OCC(CN(C)C)C2=O (stereo unspecified) : no (0)

Query: So what was the verdict on CCN(CC)c1ccc(/C=C\C(=O)c2ccc(NC(C)=O)cc2)cc1 in this test?
Reply: no (0)

Query: So what was the verdict on O=C1C=CC(=O)N1C1CCCCCCCCCCC1 in this test?
Reply: no (0)

Query: So what was the verdict on CCOC(=O)C1=NN(c2ccccc2)C(=O)/C1=C\N1C(=O)/C(=C/c2cccc(O)c2)SC1=S in this test?
Reply: no (0)

----------
Tested on: SN12C renal
Assay: NCI-60 one-dose screen, 48 h (100 = growth as untreated, 0 = no growth, -100 = all killed)
Settings: 10 µM unless noted
Experimental: Growth inhibition of the SN12C human tumor cell line is measured as a screen for anti-cancer activity. Cells are grown in 96 well plates and exposed to the test compound for 48 hours. Compounds are tested at a single concentration, which is 10^-5 M for most compounds. The reported endpoint is percent growth (GI% or GIPRCNT), where numbers from 0 - 100% represent growth inhibition, and numbers from -100% - 0 represent cell death. For example, a value of 40 represents 60% growth inhibition. […]
Compounds without any hit were thinned out: in the full panel of roughly 83,000, 20% have a hit.
Below, each entry is listed alongside its reported growth.
A number alone suffices; assume %.

COc1cc([C@@H]2c3cc4c(cc3[C@H](OC3OC5COC(c6ccccc6)OC5C(O)C3O)[C@H]3COC(=O)[C@H]23)OCO4)cc(OC)c1OC (stereo not given in full) : 41.8
O=C(CBr)c1ccc(OC(=O)c2ccccc2)cc1 : 103
CC[n+]1ccc(Nc2ccc(NC(=O)c3ccc(Nc4cc[n+](CC)c5ccc([N+](=O)[O-])cc45)cc3)cc2)cc1 : 86
Nc1nc(-c2ccccc2)nc(N)c1N=O : 74

Now consider the entry below.
// growth lookup, compound = CC(C)c1ccc(C(=O)OC2CCCC2)cc1 , result: 97.5

----------
System: NCI-H226 lung
Test: NCI-60 one-dose screen, 48 h (100 = growth as untreated, 0 = no growth, -100 = all killed)
Details: 10 µM unless noted
Compounds without any hit were thinned out: in the full panel of roughly 83,000, 20% have a hit.
Below, each entry is listed alongside its reported growth.
A number alone suffices; assume %.

Examples with answers:
O=C(OC12CC3CC(CC(C3)C1)C2)c1ccc(NCc2cc(O)ccc2O)cc1 : -63.6
COC1CC(C)C(OC)c2cc(O)cc(c2O)NC(=O)/C(C)=C/C=C\C(C)C(OC(N)=O)/C(C)=C\C(C)C1OC (stereo unspecified) : 47.8
c1ccc2sc(SSN3CC4CCC(CC4)C3)nc2c1 : 100
O=C(Cc1ccccc1)C(F)(F)F : 105
O=C1/C(=C/c2ccccc2)CCC/C1=C\c1ccccc1 : 96

// growth lookup, compound = CCC(C)(O)Cc1ccc(Cl)cc1 (stereo unspecified) , result: 97.5

// growth lookup, compound = Cc1cc(N/N=C/c2ccccn2)nc2ccccc12 , result: -1.94

// growth lookup, compound = NC1=C(Br)C(=O)c2ncccc2C1=O , result: 90.4

// growth lookup, compound = COc1ccc2c(c1)c(CC(=O)O)c(C)n2C(=O)c1ccc(Cl)cc1 , result: 94.8

// growth lookup, compound = CN(C)c1ccc(/C=C/c2nccc3ccccc23)cc1 , result: 71.6

// growth lookup, compound = CCN1CCCC(Nc2cc(C)nc(/N=C(/N)Nc3ccc(Cl)c(Cl)c3)n2)C1 (stereo unspecified) , result: 32.2

----------
Below, each entry is listed alongside its reported growth.
Tested on: SNB-75 CNS
Assay: NCI-60 one-dose screen, 48 h (100 = growth as untreated, 0 = no growth, -100 = all killed)
Details: 10 µM unless noted
Procedure: Growth inhibition of the SNB-75 human tumor cell line is measured as a screen for anti-cancer activity. Cells are grown in 96 well plates and exposed to the test compound for 48 hours. Compounds are tested at a single concentration, which is 10^-5 M for most compounds. The reported endpoint is percent growth (GI% or GIPRCNT), where numbers from 0 - 100% represent growth inhibition, and numbers from -100% - 0 represent cell death. For example, a value of 40 represents 60% growth inhibition. […]
The panel holds about 83,000 compounds, 20% with a hit somewhere; the sample as a whole holds those more often. Calls of active or inactive are those of the source. The calls were made as follows: active = growth percent below 10; inactive = the rest.

OCCOSCCO : 99.3% (inactive)

// growth lookup, compound = CC(C)=CCCC(C)C1=C(O)C(=O)C(C)=CC1=O (stereo not drawn) , result: 113% (inactive)

// growth lookup, compound = CCN(CC)c1ccc(/C=C\C(=O)c2ccc(NC(C)=O)cc2)cc1 , result: -0.746% (active)

// growth lookup, compound = CN=C(N)N/N=C(\c1ccccc1)c1ccc(Br)cc1 , result: 9.3% (active)

// growth lookup, compound = CN(C)c1ccc(C(C#N)(c2ccccc2)c2ccc(N(C)C)cc2)cc1 , result: 57.1% (inactive)

// growth lookup, compound = CCC(=O)c1cc([N+](=O)[O-])c(Br)s1 , result: 95.7% (inactive)

----------
Test system: A549/ATCC NSCLC
Test: NCI-60 one-dose screen, 48 h
Conditions: 10 µM unless noted
Compounds without any hit were thinned out: in the full panel of roughly 83,000, 20% have a hit. Activity calls are given as the source filed them. The calls were made as follows: active = growth percent below 10; inactive = the rest.
Please state which outcome applies, choosing from 1.0 (active), 0.0 (inactive)

Use the examples below as a reference point.
CN(C)CC(C)(CN(C)C)C(=O)/C=C/c1c(Cl)cccc1Cl : 0.0
O=[N+]([O-])c1ccc(N2CCN(Cc3ccccc3)CC2)c2c1no[n+]2[O-] : 1.0
CN1CCC(c2ccccc2)(c2ccccc2)C(=O)C1 : 0.0

Query: So what was the verdict on COc1ccc(C(OCC2OC(n3ccc(NC(=O)c4ccccc4)nc3=O)C(O)C2O)(c2ccccc2)c2ccccc2)cc1 (stereo not given) in this test?
Reply: 0.0

Query: So what was the verdict on OC(c1cc(-c2ccc(Cl)cc2)nc2c(Cl)cccc12)C1CCCCN1 (stereo not given) in this test?
Reply: 1.0

----------
Below, each entry is listed alongside its reported growth.
Test system: UACC-62 melanoma
Test: NCI-60 one-dose screen, 48 h (100 = growth as untreated, 0 = no growth, -100 = all killed)
Conditions: 10 µM unless noted
Compounds without any hit were thinned out: in the full panel of roughly 83,000, 20% have a hit.
A number alone suffices; assume %.

Examples with answers:
O=C(CCl)N1c2ccccc2Sc2c1ccc1ccccc21 : 78
Nc1cccc2cccc([N+](=O)[O-])c12 : 98.9
CC(C)c1ccc(C(=O)OC2CCCC2)cc1 : 97.7
CC(O)C(O)C(O)C(O)C(O)C(=O)NNc1ccccc1 (centres undefined) : 30.5
NC1=C(Br)C(=O)c2ncccc2C1=O : -96.3

Now consider the entry below.
// growth lookup, molecule = CCOc1ccc(C(CN2CCOCC2)C(C)=O)cc1OC (centres undefined) , result: 93.6
